Entry source: ChEMBL document CHEMBL3425438

target-or-test-system: UniProt P03372
Sequence (P03372 whole entry): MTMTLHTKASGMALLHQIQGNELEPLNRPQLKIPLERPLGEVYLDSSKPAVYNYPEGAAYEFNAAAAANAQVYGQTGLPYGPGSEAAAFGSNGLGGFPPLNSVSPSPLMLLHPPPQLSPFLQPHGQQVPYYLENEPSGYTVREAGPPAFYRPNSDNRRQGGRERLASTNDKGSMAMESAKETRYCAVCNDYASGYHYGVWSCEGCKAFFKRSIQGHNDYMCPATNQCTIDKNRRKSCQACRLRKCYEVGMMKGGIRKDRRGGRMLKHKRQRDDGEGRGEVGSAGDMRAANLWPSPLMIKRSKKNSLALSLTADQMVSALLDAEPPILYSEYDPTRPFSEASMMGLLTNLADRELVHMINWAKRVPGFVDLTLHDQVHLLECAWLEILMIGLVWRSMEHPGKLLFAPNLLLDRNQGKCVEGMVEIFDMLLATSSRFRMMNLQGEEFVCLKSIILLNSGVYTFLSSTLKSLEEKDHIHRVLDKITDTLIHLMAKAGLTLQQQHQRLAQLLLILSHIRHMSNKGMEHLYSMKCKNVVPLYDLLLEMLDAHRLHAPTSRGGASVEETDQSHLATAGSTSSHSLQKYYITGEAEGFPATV
assay-details: Suppression of ER alpha in human MCF7 cells after 24 hrs by immunostaining analysis
Assay type: cell-based
outcome-measure: IC50 (nM)

1. COc1cc(F)ccc1-c1c(Cc2ccc(/C=C/C(=O)O)cc2)c2ccc(O)cc2oc1=O ... 2260
2. CCOc1ccc2c(Oc3ccc(/C=C/C(=O)O)cc3)c(-c3ccc(OC(F)(F)F)cc3C)c(=O)oc2c1 ... 253
3. Cc1cc(OC(F)(F)F)ccc1-c1c(Oc2ccc(/C=C/C(=O)O)cc2)c2ccc(C(F)F)cc2oc1=O ... 506
4. Cc1cc(F)ccc1-c1c(Nc2ccc(/C=C/C(=O)O)cc2)c2ccc(O)cc2oc1=O ... 1450
5. Cc1cc(F)ccc1-c1c(Oc2ccc(/C=C/C(=O)O)cc2)c2ccc(O)cc2oc1=O ... 21
6. Cc1cccc(-c2c(Cc3ccc(/C=C/C(=O)O)cc3)c3ccc(O)cc3oc2=O)c1 ... 3090
7. Cc1cc(OC(F)(F)F)ccc1-c1c(Cc2ccc(/C=C/C(=O)O)cc2)c2ccc(O)cc2oc1=O ... 7
8. Cc1c(O)ccc2c(Cc3ccc(/C=C/C(=O)O)cc3)c(-c3ccc(OC(F)(F)F)cc3)c(=O)oc12 ... 5840
9. O=C(O)/C=C/c1ccc(Cc2c(-c3ccc(C(F)(F)F)cc3)c(=O)oc3cc(O)ccc23)cc1 ... 531
10. O=C(O)/C=C/c1ccc(Cc2c(-c3cccc(OC(F)(F)F)c3)c(=O)oc3cc(O)ccc23)cc1 ... 1710
11. Cc1cc(F)ccc1-c1c(N(C)c2ccc(/C=C/C(=O)O)cc2)c2ccc(O)cc2oc1=O ... 60
